targetSystem: human αVβ8 (Homo sapiens, UniProt P06756+P26012)
Sequence (P26012 43-684 limits assumed, one chain of several): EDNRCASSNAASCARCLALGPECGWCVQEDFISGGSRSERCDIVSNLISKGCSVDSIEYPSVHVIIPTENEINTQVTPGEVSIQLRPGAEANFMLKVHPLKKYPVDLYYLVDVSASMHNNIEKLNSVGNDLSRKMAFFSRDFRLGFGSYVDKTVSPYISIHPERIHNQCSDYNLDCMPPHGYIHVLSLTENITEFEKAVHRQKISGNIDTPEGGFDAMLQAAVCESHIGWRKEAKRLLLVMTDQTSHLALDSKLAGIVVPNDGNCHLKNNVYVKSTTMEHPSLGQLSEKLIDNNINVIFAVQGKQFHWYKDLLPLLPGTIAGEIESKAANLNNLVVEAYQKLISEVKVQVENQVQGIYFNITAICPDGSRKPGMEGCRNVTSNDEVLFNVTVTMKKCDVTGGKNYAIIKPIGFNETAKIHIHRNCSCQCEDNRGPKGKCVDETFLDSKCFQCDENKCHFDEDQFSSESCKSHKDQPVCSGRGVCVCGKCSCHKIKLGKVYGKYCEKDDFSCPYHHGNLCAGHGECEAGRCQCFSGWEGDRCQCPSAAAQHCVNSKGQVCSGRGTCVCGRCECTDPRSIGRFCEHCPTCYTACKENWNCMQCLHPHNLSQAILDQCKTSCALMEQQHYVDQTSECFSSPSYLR
protocolDetails: human αVβ8 HTRF binding assay
pIC50: −log10 of the molar value. Counter-ions that a name gives are not always drawn.
quantityName: pIC50

Consider the worked cases shown below.
[[record]]
compound = "COc1ncc(C(CC(=O)O)n2ncc3cc(OCCc4ccc5c(n4)NCCC5)ccc32)cn1 (centres unmarked) [Example 92, TFA]"
measurednumber = 5.30

[[record]]
compound = "O=C(O)CC(c1cncc(CO)c1)n1ncc2cc(OCCc3ccc4c(n3)NCCC4)ccc21 (centres unmarked) [Example 89]"
measurednumber = 5.30

[[record]]
compound = "O=C(O)CC(c1cnc2[nH]ncc2c1)n1ncc2cc(OCCc3ccc4c(n3)NCCC4)ccc21 (centres unmarked) [Example 106, TFA]"
measurednumber = 5.52

[[record]]
compound = "O=C(O)CC(c1cnc2nccnc2c1)n1ncc2cc(OCCc3ccc4c(n3)NCCC4)ccc21 (centres unmarked) [Example 95, TFA]"
measurednumber = 5.12

[[record]]
compound = "O=C(O)CC(c1cnc2c(c1)OCCN2)n1ncc2cc(OCCc3ccc4c(n3)NCCC4)ccc21 (centres unmarked) [Example 97, TFA]"
measurednumber = 5.30


P. O=C(O)CC(c1cnc2ccccc2c1)n1ncc2cc(OCCc3ccc4c(n3)NCCC4)ccc21 (centres unmarked) [Example 48, TFA]
Q. O=C(O)CC(c1cnc2ccccc2n1)n1ncc2cc(OCCc3ccc4c(n3)NCCC4)ccc21 (racemic) [Example 15]
R. Cn1cc2cc(C(CC(=O)O)n3ncc4cc(OCCc5ccc6c(n5)NCCC6)ccc43)cnc2n1 (centres unmarked) [Example 120, TFA]
Prompt: Ascending by pIC50, please: list the compounds accordingly. Please list the labels according to the requested order.
Response: R, P, Q
(R: 5.12, P: 5.36, Q: 5.82)

###

targetSystem: human αVβ6 (Homo sapiens, UniProt P06756+P18564)
Sequence (P06756 31-992 limits assumed): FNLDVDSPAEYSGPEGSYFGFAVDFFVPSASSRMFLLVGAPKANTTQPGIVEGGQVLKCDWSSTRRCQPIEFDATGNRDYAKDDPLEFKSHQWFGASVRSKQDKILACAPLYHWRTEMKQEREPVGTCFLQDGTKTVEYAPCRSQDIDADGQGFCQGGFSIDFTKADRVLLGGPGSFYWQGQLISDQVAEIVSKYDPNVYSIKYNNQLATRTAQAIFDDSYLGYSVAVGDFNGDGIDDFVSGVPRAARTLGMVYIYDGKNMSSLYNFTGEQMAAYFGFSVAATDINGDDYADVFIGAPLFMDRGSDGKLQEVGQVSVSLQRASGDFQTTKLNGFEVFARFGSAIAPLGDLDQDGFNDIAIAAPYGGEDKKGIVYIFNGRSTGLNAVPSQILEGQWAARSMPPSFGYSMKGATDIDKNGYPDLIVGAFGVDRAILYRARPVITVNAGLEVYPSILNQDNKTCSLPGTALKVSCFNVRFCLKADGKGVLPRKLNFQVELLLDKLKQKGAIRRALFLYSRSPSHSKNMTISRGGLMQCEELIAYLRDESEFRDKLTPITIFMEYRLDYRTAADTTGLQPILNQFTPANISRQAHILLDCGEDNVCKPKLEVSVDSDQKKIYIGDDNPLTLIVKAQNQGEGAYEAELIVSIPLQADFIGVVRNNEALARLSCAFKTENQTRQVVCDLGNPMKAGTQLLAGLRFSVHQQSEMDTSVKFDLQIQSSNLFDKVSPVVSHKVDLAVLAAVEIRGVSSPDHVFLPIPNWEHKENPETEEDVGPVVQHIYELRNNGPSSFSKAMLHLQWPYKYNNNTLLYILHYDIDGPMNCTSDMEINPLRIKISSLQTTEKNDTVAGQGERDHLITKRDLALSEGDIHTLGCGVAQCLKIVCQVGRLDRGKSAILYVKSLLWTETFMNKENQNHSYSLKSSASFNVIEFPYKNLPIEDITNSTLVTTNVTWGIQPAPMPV
Sequence (P18564 22-707 limits assumed): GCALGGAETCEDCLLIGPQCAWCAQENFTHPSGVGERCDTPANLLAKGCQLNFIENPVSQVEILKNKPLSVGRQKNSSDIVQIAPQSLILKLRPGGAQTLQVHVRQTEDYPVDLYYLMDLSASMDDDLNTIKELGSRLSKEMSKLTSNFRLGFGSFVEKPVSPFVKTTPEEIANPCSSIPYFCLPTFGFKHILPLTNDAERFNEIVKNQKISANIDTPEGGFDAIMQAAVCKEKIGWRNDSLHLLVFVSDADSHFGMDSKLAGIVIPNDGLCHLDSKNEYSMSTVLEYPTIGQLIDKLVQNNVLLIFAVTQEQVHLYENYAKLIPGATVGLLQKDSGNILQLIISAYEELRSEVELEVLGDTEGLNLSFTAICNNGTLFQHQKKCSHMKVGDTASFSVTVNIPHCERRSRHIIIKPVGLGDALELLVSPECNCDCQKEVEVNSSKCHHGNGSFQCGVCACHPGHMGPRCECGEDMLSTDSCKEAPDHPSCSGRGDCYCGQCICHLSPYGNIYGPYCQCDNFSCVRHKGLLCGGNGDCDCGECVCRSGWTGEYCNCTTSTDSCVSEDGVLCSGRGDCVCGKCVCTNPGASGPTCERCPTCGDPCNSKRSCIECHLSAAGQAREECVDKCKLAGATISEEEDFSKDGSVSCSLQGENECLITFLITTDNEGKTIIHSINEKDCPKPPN
protocolDetails: human αVβ6 HTRF binding assay
testSettings: recombinant human αVβ6 integrin, FITC-conjugated fibronectin
Structures can show the parent of a compound that is named as a salt.
quantityName: IC50 (nM)

[[record]]
compound = "CCN1CCn2c(C(CC(=O)O)n3ncc4cc(OCCc5ccc6c(n5)NCCC6)ccc43)cnc2C1 (stereo not shown)"
measurednumber = 14


I. O=C(O)CC(c1ccc2nncn2c1)n1ncc2cc(OCCc3ccc4c(n3)NCCC4)ccc21 (stereo not shown)
II. COc1ccc(C(CC(=O)O)n2ncc3nc(OCCc4ccc5c(n4)NCCC5)ccc32)cn1 (stereo not shown)
III. Cc1cc(C)n(-c2cccc(C(CC(=O)O)n3ncc4cc(OCCc5ccc6c(n5)NCCC6)ccc43)c2)n1 (stereo not shown) [Example 68, TFA]
Prompt: List from greatest to least IC50. Please list the labels according to the requested order.
Response: II, I, III
(II: 120 nM, I: 60 nM, III: 1.5 nM)

###

targetSystem: human αVβ3 (Homo sapiens, UniProt P05106+P06756)
Sequence (P06756 31-992 limits assumed): as the sequence (P06756 31-992 limits assumed) above
Sequence (P05106 27-718 limits assumed): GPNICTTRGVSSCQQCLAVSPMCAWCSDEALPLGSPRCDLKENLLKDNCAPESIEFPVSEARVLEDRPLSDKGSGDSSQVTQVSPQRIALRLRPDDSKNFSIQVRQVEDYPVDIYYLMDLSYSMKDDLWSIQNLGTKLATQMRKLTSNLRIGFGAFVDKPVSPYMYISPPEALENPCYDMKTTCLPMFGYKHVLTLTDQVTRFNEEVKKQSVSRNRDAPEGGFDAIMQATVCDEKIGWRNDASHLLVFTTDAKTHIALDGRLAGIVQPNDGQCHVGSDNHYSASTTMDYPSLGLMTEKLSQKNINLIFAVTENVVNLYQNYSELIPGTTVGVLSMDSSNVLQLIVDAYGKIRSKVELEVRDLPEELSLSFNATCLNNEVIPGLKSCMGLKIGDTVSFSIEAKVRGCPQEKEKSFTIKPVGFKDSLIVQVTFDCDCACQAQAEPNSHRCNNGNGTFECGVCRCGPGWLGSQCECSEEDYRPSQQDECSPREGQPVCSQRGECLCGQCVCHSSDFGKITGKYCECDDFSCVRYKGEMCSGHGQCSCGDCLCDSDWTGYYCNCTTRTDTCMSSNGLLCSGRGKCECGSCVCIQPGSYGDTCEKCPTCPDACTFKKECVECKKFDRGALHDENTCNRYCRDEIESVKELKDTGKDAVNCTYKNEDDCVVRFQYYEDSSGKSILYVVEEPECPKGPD
protocolDetails: human αVβ3 HTRF binding assay
Excerpt: All binding assays used the HTRF (homogeneous time resolved fluorescence) technology from Cisbio International, therefore all assays are described as HTRF binding assays. The assay results for the Examples are listed above together with the characterization data. The HTRF binding assays are established for the following integrins: human αVβ6, human αVβ1, human αVβ3, human αVβ5, and human αVβ8. […]
pIC50: −log10 of the molar value. Where a name gives a salt, the structure may show the parent alone.
quantityName: pIC50

Consider the worked cases shown below.
[[record]]
molecule = "O=C(O)CC(c1cnc2ccccc2n1)n1ncc2cc(OCCc3ccc4c(n3)NCCC4)ccc21 (racemic)"
quantityname = "pIC50"
measurednumber = 8.57

[[record]]
molecule = "O=C(O)CC(c1cnc2c(c1)OCCN2)n1ncc2cc(OCCc3ccc4c(n3)NCCC4)ccc21 (stereo not drawn) [Example 97, TFA]"
quantityname = "pIC50"
measurednumber = 8.59

[[record]]
molecule = "COc1ncc([C@H](CC(=O)O)n2cc3ccc(CCc4ccc5c(n4)NCCC5)cc3n2)cn1"
quantityname = "pIC50"
measurednumber = 8.70


A. O=C(O)CC(c1cnc2c(c1)OCCO2)n1ncc2cc(OCCc3ccc4c(n3)NCCC4)ccc21 (stereo not drawn) [Example 109, TFA]
B. CCOc1ncc([C@H](CC(=O)O)n2ncc3cc(OCCc4ccc5c(n4)NCCC5)ccc32)cn1 [Example 107, TFA]
C. COc1ccc([C@H](CC(=O)O)n2cc3ccc(CCC4CCc5cccnc5N4)cc3n2)cn1 (stereo partly drawn)
Prompt: List from greatest to least pIC50. Please list the labels according to the requested order.
Response: A, B, C
(A: 8.89, B: 8.62, C: 8.36)

###

targetSystem: human αVβ3 (Homo sapiens, UniProt P05106+P06756)
protocolDetails: human αVβ3 HTRF binding assay
pIC50: −log10 of the molar value. Structures can show the parent of a compound that is named as a salt.
quantityName: pIC50

P. Cn1ncc2cc(C(CC(=O)O)n3ncc4cc(OCCc5ccc6c(n5)NCCC6)ccc43)cnc21 (stereo not shown) [Example 117, TFA]
Q. CNc1ncc(C(CC(=O)O)n2ncc3cc(OCCc4ccc5c(n4)NCCC5)ccc32)cn1 (stereo not shown) [Example 112, TFA]
Prompt: Which entry shows the lesser value of pIC50 here, P or Q ? Answer with the label corresponding to your selection.
Response: Q

###

targetSystem: human αVβ3 (Homo sapiens, UniProt P05106+P06756)
protocolDetails: human αVβ3 HTRF binding assay
Counter-ions that a name gives are not always drawn.
quantityName: IC50 (nM)

[[record]]
compound = "O=C(O)CC(c1cnc2ccccc2c1)n1ncc2cc(OCCc3ccc4c(n3)NCCC4)ccc21 (stereo not shown) [Example 48, TFA]"
targetsystem = "human αVβ3 (Homo sapiens, UniProt P05106+P06756)"
measurednumber = 3.8

[[record]]
compound = "O=C(O)CC(c1cnc2ncccc2c1)n1ncc2cc(OCCc3ccc4c(n3)NCCC4)ccc21 (stereo not shown) [Example 101, TFA]"
targetsystem = "human αVβ3 (Homo sapiens, UniProt P05106+P06756)"
measurednumber = 1.6

[[record]]
compound = "O=C(O)CC(c1cncc(-c2cnco2)c1)n1ncc2cc(OCCc3ccc4c(n3)NCCC4)ccc21 (stereo not shown)"
targetsystem = "human αVβ3 (Homo sapiens, UniProt P05106+P06756)"
measurednumber = 3.1

[[record]]
compound = "COc1ccc(C(CC(=O)O)n2ncc3cc(OCCc4ccc5c(n4)NCCC5)ccc32)cn1 (stereo not shown) [Example 34, TFA]"
targetsystem = "human αVβ3 (Homo sapiens, UniProt P05106+P06756)"
measurednumber = 2.5


I. O=C(O)C[C@@H](c1cnc2ccccc2n1)n1ncc2cc(OCCc3ccc4c(n3)NCCC4)ccc21
II. O=C(O)C[C@@H](c1cnc2ccccc2c1)n1cc2ccc(CCC3CCc4cccnc4N3)cc2n1 (stereo partly shown)
III. O=C(O)CC(c1cnc(N2CCC2)nc1)n1ncc2cc(OCCc3ccc4c(n3)NCCC4)ccc21 (stereo not shown) [Example 119, TFA]
Prompt: List from greatest to least IC50. Please list the labels according to the requested order.
Response: II, I, III

###

targetSystem: human αVβ6 (Homo sapiens, UniProt P06756+P18564)
protocolDetails: human αVβ6 HTRF binding assay
testSettings: recombinant human αVβ6 integrin, FITC-conjugated fibronectin
pIC50: −log10 of the molar value. Counter-ions that a name gives are not always drawn.
quantityName: pIC50

Consider the worked cases shown below.
[[record]]
compound = "CN(C)C(=O)c1cccc(C(CC(=O)O)n2ncc3cc(CCc4ccc5c(n4)NCCC5)ccc32)c1 (stereo not shown) [Example 24]"
quantityname = "pIC50"
measurednumber = 6.89

[[record]]
compound = "Cc1nc2cc(C(CC(=O)O)n3ncc4cc(OCCc5ccc6c(n5)NCCC6)ccc43)ccc2s1 (stereo not shown) [Example 56, TFA]"
quantityname = "pIC50"
measurednumber = 8.39

[[record]]
compound = "O=C(O)CC(c1cnc2ccccc2n1)n1ncc2c(CCCc3ccc4c(n3)NCCC4)cccc21 (stereo not shown) [Example 19]"
quantityname = "pIC50"
measurednumber = 6.66

[[record]]
compound = "COc1ccc([C@@H](CC(=O)O)n2ncc3cc(OCCc4ccc5c(n4)NCCO5)ccc32)cn1 [Example 181]"
quantityname = "pIC50"
measurednumber = 5.30

[[record]]
compound = "COc1ccc([C@H](CC(=O)O)n2cc3ccc(Cc4cc5c(nc4C)NCCC5)cc3n2)cn1 [Example 8]"
quantityname = "pIC50"
measurednumber = 6.41

[[record]]
compound = "O=C(O)CC(c1cccc(N2CCCC2=O)c1)n1ncc2cc(OCCc3ccc4c(n3)NCCC4)ccc21 (stereo not shown) [Example 62, TFA]"
quantityname = "pIC50"
measurednumber = 7.43

[[record]]
compound = "O=C(NC(Cn1ncc2cc(OCCc3ccc4c(n3)NCCC4)ccc21)C(=O)O)OCc1ccccc1 (stereo not shown) [Example 14]"
quantityname = "pIC50"
measurednumber = 6.52

[[record]]
compound = "CCCCCC(CC(=O)O)n1ncc2cc(OCCc3ccc4c(n3)NCCC4)ccc21 (stereo not shown) [Example 46, TFA]"
quantityname = "pIC50"
measurednumber = 6.48


A. O=C(O)CC(c1ccnc(N2CCCC2=O)c1)n1ncc2cc(OCCc3ccc4c(n3)NCCC4)ccc21 (stereo not shown) [Example 93, TFA]
B. O=C(O)C[C@H](c1cncc(CO)c1)n1ncc2cc(OCCc3ccc4c(n3)NCCC4)ccc21 [Example 99]
C. O=C(O)CC(c1ccc(F)cn1)n1ncc2cc(OCCc3ccc4c(n3)NCCC4)ccc21 (stereo not shown) [Example 53, TFA]
D. O=C(O)CC(c1cc(Cl)cc(Cl)c1)n1ncc2cc(OCCc3ccc4c(n3)NCCC4)ccc21 (stereo not shown) [Example 43, TFA]
E. O=C(O)CC(c1ccc2c(n1)NCCO2)n1ncc2cc(OCCc3ccc4c(n3)NCCC4)ccc21 (stereo not shown) [Example 91, TFA]
Prompt: List from greatest to least pIC50. Please list the labels according to the requested order.
Response: D, A, E, C, B
(D: 8.49, A: 8.09, E: 7.51, C: 6.82, B: 6.47)

Origin of measurements: patent US10745384B2
